- Tested on: CCRF-CEM leukemia
- Measurement Protocol: NCI tumour cell line growth inhibition, 48 h
Entries and their TGI
Experimental Readout: TGI

COC(=O)CCc1c(Cc2ccc[nH]2)[nH]c(C(=O)OCc2ccccc2)c1C: > 100 µM
Cn1c(=O)c2[nH]c(SCCN3CCOCC3)nc2n(C)c1=S: > 100 µM
CCSCN(C)c1nc(N(C)C)nc(N(C)C)n1: > 100 µM
C#CCNC(=O)ON1C(=O)CCC1=O: > 100 µM
O=c1[nH]c(=O)n(COCCO)c2ccsc12: > 100 µM
C#CCNC(=O)NCCCCC(NC(=O)OCc1ccccc1)C(=O)OCc1ccccc1 (stereo not drawn): 41.3 µM
O=C(O)c1cc(=O)c2c([nH]c3ccccc32)s1: > 100 µM
CC(=O)OC12c3ccccc3C(c3ccccc31)C1C(=O)N(c3ccccn3)C(=O)C12 (stereo not drawn): > 100 µM
COc1ccc(/C=C/C(=O)c2ccc(-n3cc(CN4CCN(c5cc6c(cc5F)c(=O)c(C(=O)O)cn6C5CC5)CC4)nn3)cc2)cc1OC: > 100 µM
Cc1ccc(-n2cc(-c3ccc(Cl)cc3)c3c(NN)ncnc32)cc1: 2.52 µM
CCOC(=O)CN(Cn1cncn1)Cn1cncn1: > 100 µM
CCCCCCCC(=O)OCCCC1[C@]2(C)CC[C@@]3(C)C([C@H](C)CCC=C(C)C)CC[C@]3(C)C2CC[C@]12OC2(C)C (stereo partly drawn): 69.1 µM
O=C(Nc1ccc(F)cc1F)c1cc(Cl)ccc1O: 18.1 µM
